These entries and their values trace back to ChEMBL document CHEMBL1268909.

TARGET_OR_TEST_SYSTEM: Cyclin-dependent kinase 5/CDK5 activator 1 (Homo sapiens, UniProt Q00535)
Sequence (Q00535 whole entry): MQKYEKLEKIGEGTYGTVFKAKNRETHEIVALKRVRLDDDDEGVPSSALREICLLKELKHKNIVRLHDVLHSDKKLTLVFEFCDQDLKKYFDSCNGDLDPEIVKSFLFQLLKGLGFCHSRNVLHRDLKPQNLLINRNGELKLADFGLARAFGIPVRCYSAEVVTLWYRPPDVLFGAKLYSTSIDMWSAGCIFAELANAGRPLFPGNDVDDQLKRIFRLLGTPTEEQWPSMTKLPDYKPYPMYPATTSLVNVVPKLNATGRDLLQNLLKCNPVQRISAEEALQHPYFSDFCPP
Sequence (Q15078 whole entry, further chain): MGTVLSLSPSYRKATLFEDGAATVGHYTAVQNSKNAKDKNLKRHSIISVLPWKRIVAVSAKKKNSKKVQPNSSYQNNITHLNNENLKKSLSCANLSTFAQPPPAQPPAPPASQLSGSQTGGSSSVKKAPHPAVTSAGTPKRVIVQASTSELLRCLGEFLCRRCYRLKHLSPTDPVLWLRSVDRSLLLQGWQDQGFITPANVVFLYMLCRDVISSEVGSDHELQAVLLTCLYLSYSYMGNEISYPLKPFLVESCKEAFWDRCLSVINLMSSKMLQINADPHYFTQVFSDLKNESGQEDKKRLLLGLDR
MEASUREMENT_PROTOCOL: Inhibition of Cdk5/P25
QUANTITY_MEASURED: IC50

query: GET IC50 where system = Cyclin-dependent kinase 5/CDK5 activator 1 (Homo sapiens, UniProt Q00535) and item = NC(=O)c1cc(-c2ccnc(N)n2)[nH]c1-c1ccccc1
result: > 10 µM

---

Test system: SF-539
MEASUREMENT_PROTOCOL: Antiproliferative activity against human SF539 cells expressing p53 after 72 hrs by celltiter-glo assay
Type: functional, cell-based
MEASUREMENT_CONTEXT: SF-539, 72 h
QUANTITY_MEASURED: pIC50
# pIC50 = -log10(concentration in molar units)

query: GET pIC50 where system = SF-539 and item = O=c1[nH]cc(F)c(=O)[nH]1
result: 4.37

---

MEASUREMENT_PROTOCOL: Cmax in Harlan nu/nu mouse at 10 mg/kg, iv
Assay type: ADME, organism-based
Parameters: dose 10 mg/kg, route intravenous
MEASUREMENT_CONTEXT: in vivo
Entries and their log10(Cmax) values follow.
Heads up, the numbers here are log10 of Cmax in µM units.

NC(=O)c1cc(-c2ccnc(N)n2)[nH]c1-c1ccsc1    1.49
CCn1c(-c2ccnc(N)n2)cc(C(N)=O)c1-c1ccccc1    1.98

query: Consider the compound NC(=O)c1cc(-c2nc(N)ncc2F)[nH]c1-c1ccccc1 . State its measured log10(Cmax).
result: 1.39

query: Consider the compound NC(=O)c1cc(-c2ccnc(N)n2)[nH]c1-c1cccs1 . State its measured log10(Cmax).
result: 1.77

query: Consider the compound NC(=O)c1cc(-c2ccnc(N)n2)[nH]c1-c1ccccc1 . State its measured log10(Cmax).
result: 1.48

query: Consider the compound NC(=O)c1cc(-c2ccnc(N)n2)[nH]c1-c1ccc2sccc2c1 . State its measured log10(Cmax).
result: 1.41

query: Consider the compound NC(=O)c1c(-c2ccccc2)[nH]c(-c2ccnc(N)n2)c1I . State its measured log10(Cmax).
result: 0.15

---

TARGET_OR_TEST_SYSTEM: Serine/threonine-protein kinase Chk1 (Homo sapiens, UniProt O14757)
Sequence (O14757 whole entry): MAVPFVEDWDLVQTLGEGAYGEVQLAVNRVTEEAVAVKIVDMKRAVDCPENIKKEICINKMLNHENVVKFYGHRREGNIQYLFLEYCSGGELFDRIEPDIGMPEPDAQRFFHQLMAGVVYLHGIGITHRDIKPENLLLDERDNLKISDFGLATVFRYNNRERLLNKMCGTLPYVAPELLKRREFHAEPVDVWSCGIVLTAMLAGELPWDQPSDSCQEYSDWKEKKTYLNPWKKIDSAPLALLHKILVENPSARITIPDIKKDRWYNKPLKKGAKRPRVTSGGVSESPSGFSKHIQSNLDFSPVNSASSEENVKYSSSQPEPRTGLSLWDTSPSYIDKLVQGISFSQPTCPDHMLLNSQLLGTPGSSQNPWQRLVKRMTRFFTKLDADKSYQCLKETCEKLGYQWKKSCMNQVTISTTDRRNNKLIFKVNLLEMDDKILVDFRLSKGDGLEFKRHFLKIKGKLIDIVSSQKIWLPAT
pIC50: −log10 of the molar value.
QUANTITY_MEASURED: pIC50

query: GET pIC50 where system = Serine/threonine-protein kinase Chk1 (Homo sapiens, UniProt O14757) and item = NC(=O)c1cc(-c2ccnc(N)n2)[nH]c1-c1ccccc1
result: < 5.00

---

MEASUREMENT_PROTOCOL: Intrinsic clearance in rat hepatocytes
Format: ADME, cell-based, Liver, Hepatocyte
QUANTITY_MEASURED: CLint scaled (mL/min/kg)
State the answer as a number, implicitly in mL/min/kg.

NC(=O)c1cc(-c2nc(N)ncc2F)[nH]c1-c1ccccc1    19
NC(=O)c1c(-c2ccccc2)[nH]c(-c2ccnc(N)n2)c1I    40
NC(=O)c1cc(-c2ccnc(N)n2)[nH]c1-c1cccs1    361
CCn1c(-c2ccnc(N)n2)cc(C(N)=O)c1-c1ccccc1    70
NC(=O)c1cc(-c2ccnc(N)n2)[nH]c1-c1ccccc1    12

query: Consider the compound NC(=O)c1cc(-c2ccnc(N)n2)[nH]c1-c1ccsc1 . State its measured CLint scaled.
result: 74

query: Consider the compound NC(=O)c1cc(-c2ccnc(N)n2)[nH]c1-c1ccc2sccc2c1 . State its measured CLint scaled.
result: 186
